system: human APOE RNA; assay: Duration of action study in APOE C57BL/6NTac-Apoeem7250 knock-in mice (Example 16); assay type: in vivo; conditions: cortex; 300 μg ICV; 112 days post-dose
Strand notation (5' to 3'): a small letter for the sugar, then the base; units joined by * are phosphorothioate-linked, units joined directly phosphodiester-linked; [ ] holds rarer units or linkages, { } end groups; capitals alone tell only the bases. [PN] = cyclic guanidine phosphoramidate internucleoside linkage; [ms] = mesyl phosphoramidate linkage; e = 2'-O-(2-methoxyethyl) (MOE); k = constrained ethyl (cEt); [5mC] = 5-methylcytosine; d = 2'-deoxy (DNA)
Parameter Measured: APOE RNA (% control) Cortex
Quick note: give the figure in % control, leave out the unit.

>  <Substance>
1721310: 6-10-4 MOE gapmer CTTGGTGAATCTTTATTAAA, linkages s[pn][pn][pn]oossssssszzs[pn]ss (e[5mC]*eT[PN]eT[PN]eG[PN]eGeTdG*dA*dA*dT*d[5mC]*dT*dT*dT[ms]dA[ms]dT*eT[PN]eA*eA*eA) [compound 1721310]

>  <Experimental Result>
88

$$$$
>  <Substance>
1721308: 6-10-4 MOE gapmer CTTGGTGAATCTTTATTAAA, linkages s[pn][pn][pn]oossssssszzsoss (e[5mC]*eT[PN]eT[PN]eG[PN]eGeTdG*dA*dA*dT*d[5mC]*dT*dT*dT[ms]dA[ms]dT*eTeA*eA*eA) [compound 1721308]

>  <Experimental Result>
85

$$$$
>  <Substance>
1721306: 6-10-4 MOE gapmer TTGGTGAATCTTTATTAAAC, linkages s[pn][pn][pn]oosssssszzss[n]ss (as printed) (sugars from the 5' end e6 d10 e4, all C 5-methyl, backbone not given here; further chemistry not fully specified) [compound 1721306]

>  <Experimental Result>
89

$$$$
>  <Substance>
1746809 (k[5mC]*dT[ms]kT*dG[ms]kG*dT[ms]dG[ms]dA[ms]dA[ms]dT*d[5mC]*dT*dT*dT*dA[ms]dT*dT[ms]kA*kA*kA; antisense) [Compound 1746809]

>  <Experimental Result>
55

$$$$
>  <Substance>
1652902: 6-10-4 MOE gapmer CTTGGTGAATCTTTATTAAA, linkages sooooossssssssssoss (antisense e[5mC]*eTeTeGeGeTdG*dA*dA*dT*d[5mC]*dT*dT*dT*dA*dT*eTeA*eA*eA) [compound 1652902]

>  <Experimental Result>
75

$$$$
>  <Substance>
1746784 (k[5mC]*kT*kT*dG[ms]dG[ms]dT[ms]dG[ms]dA[ms]dA[ms]dT*d[5mC]*dT*dT*dT*dA[ms]dT*kT*kA*dA[ms]kA; antisense) [Compound 1746784]

>  <Experimental Result>
38

$$$$

Looking for the measured APOE RNA (% control) Cortex of 1753989 (k[5mC]*dT[ms]kT*dG[ms]kG*dT*dG[ms]dA[ms]dA[ms]dT*d[5mC]*dT*dT*dT*dA[ms]kT*dT[ms]kA*dA[ms]kA; antisense) [Compound 1753989] , can you help? 58

What value of APOE RNA (% control) Cortex has been reported for the following substance? 1746811 (k[5mC]*dT[ms]dT[ms]kG*kG*dT[ms]dG[ms]dA[ms]dA[ms]dT*d[5mC]*dT*dT*dT*dA[ms]dT*dT[ms]kA*kA*kA; antisense) [Compound 1746811] 71

Consider the substance shown here: 1721307: 6-10-4 MOE gapmer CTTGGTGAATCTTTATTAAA, linkages s[pn][pn][pn]oossssssssssoss (e[5mC]*eT[PN]eT[PN]eG[PN]eGeTdG*dA*dA*dT*d[5mC]*dT*dT*dT*dA*dT*eTeA*eA*eA) [compound 1721307] What is its recorded APOE RNA (% control) Cortex? 73

What value of APOE RNA (% control) Cortex has been recorded for this entry: 1746804 (k[5mC]*kT*kT*dG[ms]dG[ms]dT[ms]dG[ms]dA[ms]dA[ms]dT*d[5mC]*dT*dT*dT*dA[ms]dT*dT[ms]kA*kA*kA; antisense) [Compound 1746804] 37

Consider the substance 1721304: 6-10-4 MOE gapmer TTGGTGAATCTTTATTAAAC, linkages s[pn][pn][pn]oosssssszzssoss (eT*eT[PN]eG[PN]eG[PN]eTeGdA*dA*dT*d[5mC]*dT*dT*dT[ms]dA[ms]dT*dT*eAeA*eA*e[5mC]) [compound 1721304] and give its measured APOE RNA (% control) Cortex. 67
